Test system: M19-MEL
assay.name: NCI tumour cell line growth inhibition, 48 h
Activity calls are given as the source filed them. No stated cut-off is given here; in the data, active = GI50 up to about 1.1 µM and inactive = higher.
Classes used: active, inactive

compound	category.label
O=C1NC(=S)NC(=O)C1=CC1CC1	inactive
CNC(N)NC	inactive
NC(CCC(=O)NC(CSC(=O)N(O)c1ccc(Br)cc1)C(=O)NCC(=O)O)C(=O)O (centres undefined)	inactive
N#Cc1ccc2cc3c(cc2c1)OCO3	inactive
COc1ccccc1NC(=O)CC(=O)n1nc(C)c(/N=N/c2ccccc2F)c1C	inactive
N#CCCN(CCC#N)c1ccc(/C=C(/NC(=O)c2cc([N+](=O)[O-])ccc2Cl)C(=O)N=[N+]=[N-])cc1	inactive
C[N+](C)(C)CC(=O)N/N=C(/Cc1nc2ccc(Cl)cc2nc1O)C1=NS(=O)(=O)c2cc(S(N)(=O)=O)c(Cl)cc2N1	inactive
O=P(NCCCO)(OCc1ccccc1)N(CCCl)CCCl (centres undefined)	inactive
COc1cc(/C=C(\C#N)C(=O)c2ccccc2)ccc1O	inactive
CCNCC(=O)O[C@]1(CC)C(=O)OCc2c1cc1n(c2=O)Cc2cc3ccccc3nc2-1	active
O=C(C(O)c1cn(Cc2ccccc2)c2ccccc12)N1CCCCC1 (centres undefined)	inactive
O=C1[C@H]2ON(c3ccccc3)C(c3ccc([N+](=O)[O-])cc3)[C@H]2C(=O)N1c1ccc(Cc2ccc(N3C(=O)[C@@H]4ON(c5ccccc5)C(c5ccc([N+](=O)[O-])cc5)[C@@H]4C3=O)cc2)cc1 (some centres undefined)	inactive
N=C(N)SCc1cccc([N+](=O)[O-])c1	inactive
COC(=O)/C(=N\N)C(C(=O)C(=O)Nc1nnc(S)[nH]1)c1nc2ccc([N+](=O)[O-])cc2nc1O (centres undefined)	inactive
CC(=O)NNc1nc(C)c(C(=O)NNC(=O)C(=O)Nc2c(C)cccc2C(C)C)s1	inactive
O=C(Nc1nnc(S)[nH]1)C(=O)C1C(=O)Nc2ccccc2[S+]1[O-] (centres undefined)	inactive
COc1ccc(NC(=O)CC(=O)n2nc(-c3ccccc3)c(/N=N/c3ccc(C)cc3)c2-c2ccccc2)cc1	inactive
c1cc2c3c(c1)c1cc4c(cc1c[n+]3CC2)OCO4 [ANHYDROLYCORINIUM CHLORIDE]	inactive
CC(=O)OC1CC2C(C)(C)C(=O)C=C[C@]2(C)C2CCC3(C)C(=CC(=O)C3c3ccoc3)[C@]12C (some centres undefined)	inactive

----------
GI50 by entry:
Tested on: SK-MEL-5
assay.name: NCI tumour cell line growth inhibition, 48 h
Active and inactive are the calls of the source. Rule as the data show it: active = GI50 up to about 1.1 µM and inactive = higher.

compound	GI50
COc1ccc(-c2nc(O)c3ccccc3n2)cc1OC	> 100 µM (inactive)
[O-][n+]1c2cc(CBr)c(CBr)cc2[n+]([O-])c2c(O)cccc21	2.1 µM (inactive)
O=C1OC2C=CC1C1(CCOC1=O)C2 (stereo unspecified)	> 100 µM (inactive)
COC(=O)[C@]1(Cc2ccc3ccccc3c2)CCCCCCN1C(=O)c1ccccc1	> 100 µM (inactive)
O=C(COc1cc(=O)oc2ccccc12)c1ccccc1	37.7 µM (inactive)
OC1(c2ccc3ccccc3c2)c2ccc3ccccc3c2C2=NCCN21 (stereo unspecified)	> 100 µM (inactive)

----------
Test system: LOX IMVI
assay.name: NCI tumour cell line growth inhibition, 48 h
Calls of active or inactive are those of the source. Rule as the data show it: active = GI50 up to about 1.1 µM and inactive = higher.
Possible outcomes: 1 for active, -1 for inactive

compound	category.label
O=C(Nc1nnc(S)[nH]1)C(=O)C1C(=O)Nc2ccccc2[S+]1[O-] (stereo not given)	-1
O=C1N=C2Sc3ccc4ccccc4c3N2C1=O	-1
O=C(CCCCCCC(=O)Nc1cccnc1)NO [PYROXAMIDE]	-1
CCOC(=O)C(Cc1cccn1C(=O)OC(C)(C)C)[N+](=O)[O-] (stereo not given)	-1
COc1ccc(C2=NOC(N)(c3ccc(OC)cc3)C2)cc1 (stereo not given)	-1
CCOC(=O)/C1=C(\C)N(Cc2ccccc2)C(=O)c2ccccc2C(=O)c2c(OC(C)=O)ccc(OC(C)=O)c21	-1
COc1ccccc1OCC(COC(=O)Nc1ccc(C)cc1)OC(=O)Nc1ccc(C)cc1 (stereo not given)	-1
CCOC(=O)Oc1cc2c(c(OC)c1OC)-c1ccc(SC)c(=O)cc1C(NC(=O)C(F)(F)F)CC2 (stereo not given)	1
COc1c(OC(C)C)c(OC(C)C)c2oc(=O)n3c2c1C(c1ccccc1-n1c(C)ccc1C)C=C3 (stereo not given)	-1
CC(=O)c1cc2ccccc2oc1=O	-1

----------
Test system: SK-MEL-5
assay.name: NCI tumour cell line growth inhibition, 48 h
Activity calls are given as the source filed them. Cut-off read from the data, not from the text of the source: active = GI50 up to about 1.1 µM and inactive = higher.
Outcomes: active, inactive

compound	assayed.system	category.label
O=[N+]([O-])c1ccc(C2CC(c3ccccc3Cl)=Nc3ccccc3S2)cc1 (stereo not given)	SK-MEL-5	inactive
Cc1ccccc1NC(=O)c1c(C)oc2c1C(=O)c1ccccc1C2=O	SK-MEL-5	inactive
C/C=C/[C@H]1O[C@@](O)([C@@H](C)[C@H](O)[C@H](C)[C@H]2OC(=O)/C(OC)=C/C(C)=C/[C@@H](C)[C@@H](O)[C@@H](CC)[C@@H](O)[C@H](C)C/C(C)=C/C=C/[C@@H]2OC)C[C@H](OC2CC(O)C(OC(N)=O)C(C)O2)[C@@H]1C (stereo not given in full)	SK-MEL-5	active
Nc1nc[n+](Cc2ccccc2)c2ncn(Cc3ccccc3)c12	SK-MEL-5	inactive
CC(=O)c1cc2ccccc2oc1=O	SK-MEL-5	inactive
COC(=O)/C(=N\NC(C)(C)C)C(C(=O)C(=O)Nc1cc(C)ccc1C)c1nc2ccccc2nc1O (stereo not given)	SK-MEL-5	inactive
N#Cc1c(Cl)cccc1Oc1ccc(S(=O)(=O)N/C(=N\O)Nc2ccc(Cl)cc2)cc1	SK-MEL-5	inactive
C1=N\c2ccc(cc2)/N=C\c2ccc(cc2)OCc2cccc(n2)COc2ccc/1cc2	SK-MEL-5	inactive
CSc1nc(C)c2c(n1)N(c1ccc(Cl)cc1)CC2	SK-MEL-5	inactive
COc1ccc(C2=Nc3cc(C)c(C)cc3NC(c3ccccc3)C2)cc1 (stereo not given)	SK-MEL-5	inactive
O=C(O)[C@@H]1C[C@@H](O)CN1C(=O)OCc1ccccc1	SK-MEL-5	inactive
COc1cc2c(cc1OC)C(CC(=O)NN=C(C)C)NCC2 (stereo not given)	SK-MEL-5	inactive
Cc1ccc2nc3c(Cl)c(C)c(=O)cc-3sc2c1	SK-MEL-5	inactive
Nc1ccn([C@H]2CO[C@@H](CO)O2)c(=O)n1	SK-MEL-5	inactive
CCCc1nc(Cl)nc(Cl)c1Cl	SK-MEL-5	active
CC(=O)OC1COC(N2C(=O)/C(=N\NC(N)=S)c3cc(Br)ccc32)C(OC(C)=O)C1OC(C)=O (stereo not given)	SK-MEL-5	inactive
NC(CCC(=O)NC(CSC(=O)N(O)c1ccc(Br)cc1)C(=O)NCC(=O)O)C(=O)O (stereo not given)	SK-MEL-5	inactive
CC1(C)[C@@H](Cn2cc(I)c(=O)[nH]c2=O)CC[C@@]1(C)CO	SK-MEL-5	inactive
COc1ccc(N2C(=O)C3c4[nH]c5ccccc5c4C4CCCCCCCCCC4C3C2=O)cc1 (stereo not given)	SK-MEL-5	inactive
CCOc1ccc(/C=C(\Cl)c2ccc(OC)c(OC)c2)cc1	SK-MEL-5	inactive

----------
Test system: NCI-H226
assay.name: NCI tumour cell line growth inhibition, 48 h
Active and inactive are the calls of the source. Rule as the data show it: active = GI50 up to about 1.1 µM and inactive = higher.
Outcome codes: yes (active), no (inactive)

molecule	category.label
N#Cc1c(Cl)cccc1Oc1ccc(S(=O)(=O)N/C(=N\O)Nc2ccc(Cl)cc2)cc1	no
O=c1c2cccnc2[nH]c2ccc3[nH]ncc3c12	no
CSc1nc(C)c2c(n1)N(c1ccc(Cl)cc1)CC2	no
CC1(C)C=C(/C=N/Nc2ccc([N+](=O)[O-])cc2)C(C#N)=C(O)C1(C#N)C#N	no
CC(CC(N)C(=O)O)C(=O)O (stereo not given)	no
COc1cc2cc3c4c(cc(OC)c(OC)c4c2cc1OC)CCN3C(=O)OCCBr	yes
CC(C)=CCC/C(C)=C/CC/C(C)=C/CC/C(C)=C/CC/C(C)=C/CC/C(C)=C/CC/C(C)=C/CC/C(C)=C/CC/C(C)=C/CO	no
CC(NC(=O)OC(C)(C)C)C(=O)C(N)=O (stereo not given)	no
COCC(=O)OC1CCn2c1nc1c2C(=O)C(C)=C(NC(C)=O)C1=N (stereo not given)	no
Clc1cc(Cl)cc(/N=C/C=C/Nc2cc(Cl)cc(Cl)c2)c1	no

----------
Test system: SR
assay.name: NCI tumour cell line growth inhibition, 48 h
Activity calls are given as the source filed them. Cut-off read from the data, not from the text of the source: active = GI50 up to about 1.1 µM and inactive = higher.
parameter.measured: GI50

COC(=O)C(CCCCN)NC(=O)C(CCCCN)NC(C)=O.Cc1ccc(C(=O)Nc2ccc(S(=O)(=O)O)c3cc(S(=O)(=O)O)cc(S(=O)(=O)O)c23)cc1NC(=O)c1cccc(NC(=O)Nc2cccc(C(=O)Nc3cc(C(=O)Nc4ccc(S(=O)(=O)O)c5cc(S(=O)(=O)O)cc(S(=O)(=O)O)c45)ccc3C)c2)c1 > 50 µM (inactive)
Cc1ccc2nc3c(Cl)c(C)c(=O)cc-3sc2c1 > 10 µM (inactive)
CCN(CC)/N=C\c1c2ccccc2cc2ccccc12 26.6 µM (inactive)
